molecular target: ATP synthase subunit c (Escherichia coli, UniProt P68699); construct: gene atpE; native ATP synthase in membrane vesicles of E. coli ATCC 25922; with whole ATP synthase complex; assay: inhibition of NADH-driven ATP synthesis in E. coli membrane vesicles, luminescence (ATPlite), Dixon-type Ki; format: biochemical; details: read-out: Ki (μM) In Vitro
Sequence (P68699 whole entry): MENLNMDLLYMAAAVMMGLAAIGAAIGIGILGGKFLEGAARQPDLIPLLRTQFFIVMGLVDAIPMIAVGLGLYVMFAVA
measure.name: Ki (µM)
Answers are plain numbers, in µM.

INSERT INTO measurements (compound, measured) VALUES
  ('C[C@H]1CCC2(NC1)O[C@H]1C[C@H]3[C@@H]4CCC5C[C@@H](NCCN)CC[C@]5(C)[C@H]4CC[C@]3(C)[C@H]1[C@@H]2C (some centres unmarked)', 1.1);

Next:
Item: C[C@H]1CCC2(NC1)O[C@H]1C[C@H]3[C@@H]4CCC5C[C@H](NCCN)CC[C@]5(C)[C@H]4CC[C@]3(C)[C@H]1[C@@H]2C (some centres unmarked) | Ki: 3.5
